B1: Zinc finger homeobox protein 3, residues 2147 to 2202; numbered along this chain, Q15911 (parent)
chain: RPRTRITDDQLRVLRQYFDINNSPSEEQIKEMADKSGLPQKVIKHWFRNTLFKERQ

# Variants of: B1
# test.protocol: abundance fitness (aPCA) (normalised: wild type 0, dead -1); higher = more abundant; growth selection in yeast, the domain comes from the species named
# stated.conditions: Homo sapiens
# abundance fitness values compiled below
measured.parameter: abundance fitness

RPSTRITDDQLRVLRQYFDINNSPSEEQIKEMADKSGLPQKVIKHWFRNTLFKERQ [R3S]
0.034
RPRTRITDDQLRVLRQYFDINNSPSEEQIKEMADTSGLPQKVIKHWFRNTLFKERQ [K35T]
-0.189
RPRTRITDDQLRVLRVYFDINNSPSEEQIKEMADKSGLPQKVIKHWFRNTLFKERQ [Q16V]
-0.162
RPRTRITDDQLRVLRQYFDINNSPSEEQIKEMADKSGLPQEVIKHWFRNTLFKERQ [K41E]
0.01
RPRTRITDDQLRVLRQYFDINNSPSEEQIKEMADKSGLPQKVIKHWFRNTVFKERQ [L51V]
-0.119
RPRTRITDDQLRVLRQYFDINNSPSEEQIKEMADDSGLPQKVIKHWFRNTLFKERQ [K35D]
-0.297
RPRTRITDDQLRVLRQYFDINNSPSEEQIKCMADKSGLPQKVIKHWFRNTLFKERQ [E31C]
-0.213
RPRTRITADQLRVLRQYFDINNSPSEEQIKEMADKSGLPQKVIKHWFRNTLFKERQ [D8A]
-0.022
EPRTRITDDQLRVLRQYFDINNSPSEEQIKEMADKSGLPQKVIKHWFRNTLFKERQ [R1E]
-0.832
RPRTRIADDQLRVLRQYFDINNSPSEEQIKEMADKSGLPQKVIKHWFRNTLFKERQ [T7A]
-0.024
RPRTRITDDQLRVLRQYFDINNSPSEEQIKEMADKSGLPQKVIKHWFRNTLFFERQ [K53F]
-0.195
RPRTRITDDQLRVLRQYFDINNSESEEQIKEMADKSGLPQKVIKHWFRNTLFKERQ [P24E]
-0.673
RPRTRITDDQLRVLRQYFDINNSPSEEQIKEMADKSGLPQKVRKHWFRNTLFKERQ [I43R]
-1.21
RPRTRITDDQLRVLRQYFDINNSPSEEQIKEMADKSGLPQKVIDHWFRNTLFKERQ [K44D]
-0.08
RPRTRITDDQLRVLRQYFDINNSPSEEQIKMMADKSGLPQKVIKHWFRNTLFKERQ [E31M]
-0.133
RPRTRITDDQLRVLRQYFDINNSPSEEQIKEMADKMGLPQKVIKHWFRNTLFKERQ [S36M]
-0.157
RPRTRITDPQLRVLRQYFDINNSPSEEQIKEMADKSGLPQKVIKHWFRNTLFKERQ [D9P]
-0.074
RPRTRITDDQLRVHRQYFDINNSPSEEQIKEMADKSGLPQKVIKHWFRNTLFKERQ [L14H]
-0.666
RPRTRITDDQLRVLRQYFDINNSPSEEQIKEMADKSGLPPKVIKHWFRNTLFKERQ [Q40P]
0.121
RPRTRITDDQLRVLRQYFDINNSPSEEQIKEMADKSGLPQKVIKHWMRNTLFKERQ [F47M]
-0.242
RPRTRITDDQLRVTRQYFDINNSPSEEQIKEMADKSGLPQKVIKHWFRNTLFKERQ [L14T]
-0.942
RPRTRITDDQLRVLRQYFDINNSPSEEQIKEMADKSGLAQKVIKHWFRNTLFKERQ [P39A]
-0.068
RPRTRITDDQLRVLRQYFDINNQPSEEQIKEMADKSGLPQKVIKHWFRNTLFKERQ [S23Q]
0.004
RPRTRITDDQLRVLRQYFDINNSPSEEQIKEMADKSGLPQKVIKHKFRNTLFKERQ [W46K]
-0.738
RPRTRITDDQLRVLRQYFDINNSPSAEQIKEMADKSGLPQKVIKHWFRNTLFKERQ [E26A]
-0.043
RPRTRITDDQLRVLRQYFDINNSPSEEQIKEMADKSGLPQKVIKHWFRNSLFKERQ [T50S]
-0.016
RPRTRITDDQLRVLRQYFDINNSPSEEQIKEMADKSGLNQKVIKHWFRNTLFKERQ [P39N]
-0.249
RPRTRITDDQLRVLRQYFDINNSPSEEQIKEMAAKSGLPQKVIKHWFRNTLFKERQ [D34A]
0.071
RPRTRITDDQLRVLRQYFDINNSPSEEQIKEMADKSGLPQKVIKHWFRNCLFKERQ [T50C]
-0.314
RPRTRITDDQLRVLRQYFDINWSPSEEQIKEMADKSGLPQKVIKHWFRNTLFKERQ [N22W]
-0.19
RPRTRITDDQLRVLRQYFDINNSPSEEQIKEMADKSGLPQKVIKFWFRNTLFKERQ [H45F]
0.009
RPRTRITDDQLRVLRQYFDINNSPSEEQIKEMADKSGLPQKVIKHWFRNTLHKERQ [F52H]
-0.189
RPRTRITDDQLRVLRQYFDINNSPSEEQIKEYADKSGLPQKVIKHWFRNTLFKERQ [M32Y]
-0.317
RPRTRITDDQLRVLRQYFDINNSPSEEQIKEMADKSGLPLKVIKHWFRNTLFKERQ [Q40L]
0.072
RPRTRITDDQLRVLRQYFDINNSPSEEQIKEMADKSGLPQKVIKHWFRWTLFKERQ [N49W]
-0.014
RPRTRITDDQLRVLRQYFDITNSPSEEQIKEMADKSGLPQKVIKHWFRNTLFKERQ [N21T]
0.152
RPRTRITDDQLRVLRQYFDINNSPSEEQIKEMADKSGLPQKVIKHWFRNTLFQERQ [K53Q]
0.055
RPRTRITDDQLRVLRQYFDINNSPSEEQIKLMADKSGLPQKVIKHWFRNTLFKERQ [E31L]
-0.259
RPRTRITDDQLRVLRPYFDINNSPSEEQIKEMADKSGLPQKVIKHWFRNTLFKERQ [Q16P]
-0.242
RPRTRPTDDQLRVLRQYFDINNSPSEEQIKEMADKSGLPQKVIKHWFRNTLFKERQ [I6P]
-0.108
RPRTRITDDQLRVLRQYFDINNSPSEEQIKVMADKSGLPQKVIKHWFRNTLFKERQ [E31V]
-0.079
